- study.target: DP107-like domain of the RSV F1 protein (Human respiratory syncytial virus A)
- Construct: made in house
- Sequence (P03420 142-302): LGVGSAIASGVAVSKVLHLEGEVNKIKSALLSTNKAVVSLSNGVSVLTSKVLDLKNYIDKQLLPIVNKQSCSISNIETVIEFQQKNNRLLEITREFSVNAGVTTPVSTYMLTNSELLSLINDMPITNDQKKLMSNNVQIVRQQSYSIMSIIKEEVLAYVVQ
- Format: binding
- particulars: B50, competition with biotin labeled T112 (T888); read-out: binding affinity
measured.endpoint: pKd
One number for each entry, as −log10 of the molar value.

Request: Missing value: pKd, DP107-like domain of the RSV F1 protein (Human respiratory syncytial virus A), entry Ac-VYPSDEFDASISQVNEKINQALAYIRKADELLHNV-NH2 [T786] . Fill in?
Response: 7.72
